# Tested on: HOP-18 NSCLC
# TEST_SUMMARY: NCI tumour cell line growth inhibition, 48 h
Overview of reported TGI across a group of molecules:

// worked examples, TGI included
COc1ccccc1C1C(C(=O)Nc2ccccc2)=C(C)NC(C)=C1C(=O)Nc1ccccc1 : > 100 µM
CN(C)CCC(=O)N1C/C(=C/c2ccccc2)C(=O)/C(=C\c2ccccc2)C1 : 10.9 µM
c1ccc(C2C3=C(Nc4ncnn42)c2ccccc2C3)cc1 (centres undefined) : > 100 µM

Query: Recorded TGI for COc1ccc(CNc2cc(OC)c(OC)c(OC)c2)cc1 , please?
Reply: > 94.6 µM

Query: Same lookup for Clc1ccc(C2N3CCCCC3[C@@H]3c4[nH]c5ccccc5c4CCN23)cc1 (some centres undefined) , please.
Reply: > 100 µM

Query: Could you do the same for COC(=O)C(=O)C(C(=O)C=C(C)C)C(=O)C(=O)Nc1cc(C(F)(F)F)ccc1Cl (centres undefined) , please?
Reply: > 100 µM

Query: Another molecule: COc1ccc(C2Oc3c(cc(O)c(OC)c3C)[C@@H]2C)cc1OC (some centres undefined)
Reply: > 100 µM

Query: Same thing, different molecule: CCOC(=O)NC(=O)c1cn(C2OC(COC(=O)CCCCCCCCC(=O)OCC3OC(n4cc(C(=O)NC(=O)OCC)c(=O)[nH]c4=O)C(O)C3O)C(O)C2O)c(=O)[nH]c1=O (centres undefined)
Reply: > 100 µM

Query: Similarly, CC(=O)Nc1ccccc1Sc1ccccc1 ?
Reply: > 100 µM

----------
# Test system: HT29 colon
# TEST_SUMMARY: NCI tumour cell line growth inhibition, 48 h
EXPERIMENTAL_READOUT: TGI

Below, 10 molecules whose answers are already recorded.
CC(C)OP(=O)(OC(C)C)c1c(Nc2ccccc2)n[nH]c1N : > 100 µM
CCCCN1C(=O)CC2[C@@H]3CCc4cc(OC(C)=O)ccc4C3CC[C@]2(C)C1=O (some centres not stated) : > 10 µM
CCCCCCCCCCCCCC(=O)OC1CC(=O)OC1CO (configuration not stated) : > 100 µM
COc1ccccc1Nc1nc(N)nc(N)c1N=O : > 100 µM
COc1ccc(-n2c(=O)c3[nH]cnc3n(-c3ccc(OC)cc3)c2=S)cc1 : > 100 µM
CC(C)=CCOC(=O)C(C)=[N+]=[N-] : > 100 µM
C=C(CN1CCc2ccccc2C1)c1ccc(C(=O)Nc2cnccn2)cc1 : 59.5 µM
CSc1nc(Cl)c2c(n1)Sc1nc3cc4c(cc3n1C2O)OCCO4 (configuration not stated) : 18.9 µM
NC(N)=NS(=O)(=O)c1ccc(NCc2c3ccccc3[n+]([O-])c3ccccc23)cc1 : > 100 µM
CCOC(=O)NC(=O)c1cn(C2OC(COC(=O)CCCCCCCCC(=O)OCC3OC(n4cc(C(=O)NC(=O)OCC)c(=O)[nH]c4=O)C(O)C3O)C(O)C2O)c(=O)[nH]c1=O (configuration not stated) : > 100 µM

Query: Fill in the blank: the reported TGI of Cc1nc2cccc([N+](=O)[O-])c2c(NCCCN(C)C)c1C is ____.
Reply: 55.3 µM

Query: Also check COc1ccc2[nH]c(O)c(/C=c3/cc4c(c(-c5cc(OC)c(OC)c(OC)c5)n3)=Nc3ccccc3-4)c2c1
Reply: 7.05 µM

Query: Again, but for COc1ccc(N2C(=O)C3c4[nH]c5ccc(OCc6ccccc6)cc5c4C4CCC(C(C)(C)C)CC4C3C2=O)cc1 (configuration not stated)
Reply: > 100 µM

----------
# System: A498 renal
# TEST_SUMMARY: NCI tumour cell line growth inhibition, 48 h
Items are presented alongside their recorded TGI.
Field: numeric (µM). Do not append units.

Example entries begin here.
OCCCCCNc1c2ccccc2nc2ccccc12 : 12.7
CNC(=O)OCc1c(COC(=O)NC)c(-c2ccc(Cl)c(Cl)c2)n2c1SCC2 : 2.07
CSc1cc(N=Nc2nc3ccccc3s2)c2ccccc2c1O : 45.5

--- query ---
Query: Request the reported TGI associated with CC[CH2][Pb]([CH2]CC)([CH2]CC)[O]C(=O)C(F)(F)F
Reply: 0.245

----------
# Tested on: RPMI-8226 leukemia
# TEST_SUMMARY: NCI tumour cell line growth inhibition, 48 h
EXPERIMENTAL_READOUT: TGI (µM)
Unit µM implied. Number only.

O=C1c2c(c3c4ccccc4n(CCCCCCBr)c3c3[nH]c4ccccc4c23)C(=O)N1O : 5.57

For the next question, use this compound.
Query: Which TGI reading was recorded for the compound O=C(NNC(=S)Nc1ccc(Cl)cc1)c1cc(-c2ccccc2)nc2ccccc12 ?
Reply: 48

----------
# System: SK-MEL-2 melanoma
# TEST_SUMMARY: NCI tumour cell line growth inhibition, 48 h
EXPERIMENTAL_READOUT: TGI (µM)
Numeric answer only, unit µM assumed.

Before answering, review these 2 worked examples.
Cc1ccc2c(c1)C(=O)/C(=C/c1ncc([N+](=O)[O-])n1C)O2 : 3.54
CCNCCNc1cc(-c2ccc(C(=O)OC)cc2)c(C#N)c2nc3ccccc3n12 : 31.5

Turning now to a further record.
Query: Which TGI value belongs to COc1ccc2[nH]c3c(C)c4c(c(C)c3c2c1)CN(C)CC4 ?
Reply: 31.5

----------
# Tested on: ACHN renal
# TEST_SUMMARY: NCI tumour cell line growth inhibition, 48 h
EXPERIMENTAL_READOUT: GI50

Completed entries (count: 6):
COc1cc(OC)cc(-c2ccc(-c3ccc(C(=N)N)o3)o2)c1 : 2.05 µM
Cc1ccc(-c2c3c([nH]c(=O)c2C#N)-c2cc(F)ccc2OC3)cc1 : > 100 µM
O=C1c2cccc(NCCN=Cc3cc(O)ccc3O)c2C(=O)c2c(NCCN=Cc3cc(O)ccc3O)cccc21 : 2.05 µM
N#C/C(=C1C=C/C(=N/O)C(Br)=C/1)c1ccccc1 : 1.89 µM
CCNCCNc1cc(-c2ccc(C(=O)OC)cc2)c(C#N)c2nc3ccccc3n12 : 1.66 µM
C[C@]12CC[C@H](O)CC1=CC[C@@H]1[C@@H]2CC[C@]2(C)C(c3cccnc3)=CC[C@@H]12 : 18.7 µM

Query: Tell me the measured GI50 of O=c1oc2ccc(F)cc2c(=O)n1-c1ccc(F)cc1F , please.
Reply: 2.71 µM

Query: What would you report for COc1ccc2c(c1)c(-c1nc(-c3cn(C)c4ncccc34)cs1)cn2CCCN1CCCCC1 ?
Reply: 1.69 µM

Query: Then this compound: COc1ccc2[nH]c(O)c(/C=c3/cc4c(c(-c5cc(OC)c(OC)c(OC)c5)n3)=Nc3ccccc3-4)c2c1
Reply: 7.47 µM

Query: Next compound up: Cc1cc(I)cc(CNCCCN2CCSCC2)c1O
Reply: 17.5 µM

----------
The entries below come with measured TGI values attached.
# Test system: PC-3 prostate
# TEST_SUMMARY: NCI tumour cell line growth inhibition, 48 h

Some compounds with known TGI results, for comparison:
O=C1CNCCCN2CCN(CCCNCC(=O)Nc3ccc(cc3)S(=O)(=O)c3ccc(cc3)NC(=O)CNCCCN3CCN(CCCNCC(=O)Nc4ccc(cc4)S(=O)(=O)c4ccc(cc4)N1)CC3)CC2 : > 100 µM
COc1ccc(/C(=C2\O[C@@H]([C@H]3COC(C)(C)O3)[C@H]3OC(C)(C)O[C@@H]23)c2cc(OC)c(OC)c(OC)c2)cc1O : > 100 µM
NCC(=O)NS(=O)(=O)OC[C@H]1O[C@@H](n2cnc3c(N)ncnc32)[C@H](O)[C@@H]1O : 6.47 µM
c1ccc2c(c1)OC(N1CCCC1)c1cnc(N3CCCC3)nc1-2 (centres undefined) : > 100 µM
O=c1oc2ccc(F)cc2c(=O)n1-c1ccc(F)cc1F : 10.1 µM

Query: Look up TGI: COC(=O)CCCCN=Cc1c(O)c(O)c(C(C)C)c2cc(C)c(-c3c(C)cc4c(C(C)C)c(O)c(O)c(C=NCCCCC(=O)OC)c4c3O)c(O)c12
Reply: > 32.5 µM

Query: Next: O=C(O)CCCCC(CCSCc1ccccc1)SCc1ccccc1 (centres undefined)
Reply: > 100 µM

Query: Next record, please: O=C(CCCCCCCCC(=O)NN1C(=O)/C(=C\c2ccc(O)c(O)c2)SC1c1ccc(Cl)cc1)NN1C(=O)/C(=C\c2ccc(O)c(O)c2)SC1c1ccc(Cl)cc1 (centres undefined)
Reply: > 100 µM

Query: Also check CCCc1cc(=O)c2c(C)c3[nH]c4ccc(Cl)cc4c3c(C)c2[nH]1
Reply: 14.7 µM

Query: Also Cc1ccc(-c2c(C#N)c(-c3ccccc3)n(NS(=O)(=O)c3ccccc3)c(=O)c2C#N)cc1 , if possible.
Reply: > 100 µM

----------
# Tested on: SNB-78 CNS
# TEST_SUMMARY: NCI tumour cell line growth inhibition, 48 h
TGI overview

Please review the following examples before continuing.
COc1ccc(CNc2cc(OC)c(OC)c(OC)c2)cc1 : 32.9 µM
CCOC(=O)NC(=O)c1cn(C2OC(COC(=O)CCCCCCCCC(=O)OCC3OC(n4cc(C(=O)NC(=O)OCC)c(=O)[nH]c4=O)C(O)C3O)C(O)C2O)c(=O)[nH]c1=O (stereo not drawn) : > 100 µM
CC(=O)Nc1ccccc1Sc1ccccc1 : > 100 µM
COc1ccc2cc1Oc1ccc(cc1)CC1c3cc(c(OC)cc3CCN1C)Oc1c3c(cc4c1C(C2)N(C)CC4)OCO3 (stereo not drawn) : 30.7 µM
COc1ccc(C2Oc3c(cc(O)c(OC)c3C)[C@@H]2C)cc1OC (stereo partly drawn) : > 100 µM

Query: Fill in the blank: the reported TGI of CCOC(=O)C1Cc2[nH]c3ccccc3c2C(C)C1C (stereo not drawn) is ____.
Reply: 62.4 µM

Query: Entry CCCCCCCCCCCCCC(=O)OC1CC(=O)OC1CO (stereo not drawn) please
Reply: > 100 µM

Query: Now the compound COc1ccc2ccc3c(c2c1)CN1CCc2cc(OC)c(OC)cc2C1C3 (stereo not drawn)
Reply: > 100 µM
